assay: solvent given as SMILES; conditions: in CC(C)=O
Decision: absorption maximum beneath 400 nm gives t; absorption maximum meeting or exceeding 400 nm gives f.

In the record for c1ccc(N2c3ccc4ccccc4c3-c3c4ccccc4nc[n+]3[B-]2(c2ccccc2)c2ccccc2)cc1 , is absorption maximum less than 400 nm? f

is_below(absorption maximum, 400 nm) for CN(C)c1ccc(/C=C2\CC/C(=C\c3ccc(C#N)cc3)C2=O)cc1 ? f

# check: absorption maximum < 400 nm for O=[N+]([O-])c1ccc([N+]2=Cc3ccc4c5c(ccc4c3O[B-]2(c2c(F)c(F)c(F)c(F)c2F)c2c(F)c(F)c(F)c(F)c2F)C=[N+](c2ccc([N+](=O)[O-])cc2)[B-](c2c(F)c(F)c(F)c(F)c2F)(c2c(F)c(F)c(F)c(F)c2F)O5)cc1 f

Please indicate whether the reported absorption maximum of CC(C)(C)c1cc2ccc3cc(C(C)(C)C)cc4c3c2c(c1)c(=O)n1c4nc2c3ccccc3c3ccccc3c21 is strictly below 400 nm. t

Is 400 nm strictly greater than the molecule's reported absorption maximum? molecule: CC(=O)O[B-]1(OC(C)=O)OC(/C=C/c2ccc(C)cc2)=CC(/C=C/c2ccc(C)cc2)=[O+]1 f

# strict comparison: is reported absorption maximum < 400 nm? input = COc1ccc2c(c1)sc1[n+]2[B-](F)(F)OC(c2ccc(N(C)C)cc2)=N1 f

Determine if CCCCCCCCC1(CCCCCCCC)c2cc(C#Cc3ccc(N(c4ccccc4)c4ccccc4)cc3)ccc2-c2ccc(C=O)cc21 shows absorption maximum strictly lower than 400 nm. t

Identify whether the molecule O=S(=O)([O-])c1ccccc1/C=C/c1ccc(-c2nnc(-c3ccc(/C=C/c4ccccc4S(=O)(=O)[O-])cc3)o2)cc1 records absorption maximum below 400 nm. t

Hi there! Is absorption maximum for c1ccc(-c2ccc(-c3ccc(N(c4ccccc4)c4ccccc4)cc3)c3nsnc23)cc1 below 400 nm, do you know? f

Input COc1cc(N(c2ccccc2)c2ccccc2)ccc1C=C(C#N)C#N ; condition: absorption maximum strictly below 400 nm. Does it hold? f

Report whether reported absorption maximum is lower than 400 nm (strictly) for c1ccc(-c2nc(-c3ccc(-c4ccc(-n5c6ccccc6c6ccccc65)cc4)cn3)oc2-c2ccccc2)cc1 t

Could you please tell me whether absorption maximum recorded for CC1=C(C(C)(C)C)C(C)=[N+]2C1=C(C)c1c(C)c(C(C)(C)C)c(C)n1[B-]2(F)F is less than 400 nm? f

For this molecule, is absorption maximum lower than 400 nm? CC(=O)O[B-]1(OC(C)=O)OC(/C=C/c2ccccc2)=CC(/C=C/c2ccccc2)=[O+]1 f

Is absorption maximum of CCCCC1(CCCC)c2cc(-c3ccc(C=C4C(=O)c5ccccc5C4=O)cc3)ccc2-c2ccc(-c3ccc(C=C4C(=O)c5ccccc5C4=O)cc3)cc21 strictly below 400 nm? f

Determine if CN(C)c1ccc2nc(/C=C/c3ccccc3)c(=O)oc2c1 shows absorption maximum strictly lower than 400 nm. f

* * *

assay: solvent given as SMILES; conditions: in ClCCl
quantity-name: absorption maximum (nm)
Enter your answer as a number in nm; do not include the unit.

Value lookup for absorption maximum; key = CC(C)(C)c1ccc2c(c1)c1cc(C(C)(C)C)ccc1n2-c1ccc(C(=O)c2ccc(-n3c4ccc(C(C)(C)C)cc4c4cc(C(C)(C)C)ccc43)nc2)cn1 382.72

What value of measured absorption maximum is listed for O=P(c1ccccc1)(c1ccccc1)c1cccc(-c2nc3ccccc3n2-c2cccc(P(=O)(c3ccccc3)c3ccccc3)c2)c1 ? 304

Reported absorption maximum, compound CC(C)(C)c1ccc(-c2nc3c4ccc(-c5ccccc5)cc4c4cc(-c5ccccc5)ccc4c3n2-c2ccc(C(C)(C)C)cc2)cc1 : ____ 330

Which absorption maximum reading was recorded for the compound CCCCCCNC(=O)c1sc(-c2ccc(-c3cc(-c4ccc(C(C)(C)C)cc4)c(C(=O)NCCCCCC)s3)s2)cc1-c1ccc(C(C)(C)C)cc1 ? 392

I'd like to know its absorption maximum. The compound in question is CCCCCCCCCCCCCCCCN(CCCCCCCCCCCCCCCC)c1ccc(/C=C/c2cc[n+](Cc3cc(C[n+]4ccc(/C=C/c5ccc(N(CCCCCCCCCCCCCCCC)CCCCCCCCCCCCCCCC)cc5)cc4)cc(C[n+]4ccc(/C=C/c5ccc(N(CCCCCCCCCCCCCCCC)CCCCCCCCCCCCCCCC)cc5)cc4)c3)cc2)cc1 516

Item under review: CC(C)(C)NC(=O)c1ccc(Br)c2ccc3c4ccc(F)cc4c4cc(F)ccc4c3c12 . Reported absorption maximum? 338
